Target: ACA-6501 aPL antibody
Assay: competitive ELISA I50; antibody not given, ACA-6501 serum on CL/β2-GPI assumed (Ex. 4B)
Square brackets hold non-standard residues; d marks the D form. Ends that are not written are not given here. ATU = not defined here; Aib = CC(C)(N)C(=O)O
MEASURED ATTRIBUTE: IC50 (µg/mL)

1. CLGVLAKLC [3G3 Ala scan 5: … (peptide 925)]: 40
2. CLGPLGKLC [3G3 conformational scan 13 (Pro scan): …]: 180
3. CLGVL[Aib]KLC (not fully specified (bridges); printed as CLGVL-aiB-KLC; cysteine pairing not given here) [3G3 conformational scan 29: CLGVL-aiB-KLC]: 110
4. CPGVLGKLC [3G3 conformational scan 11 (Pro scan): …]: 160
5. CLAVLGKLC [3G3 Ala scan 2: …]: 170

(A) {Tyr-ATU}-CLGVLGKLC (not fully specified (bridges); printed as Y-ATU-CLGVLGKLC; cysteine pairing not given here; reading uncertain) [3G3 others 2: Y-ATU-…]
(B) CLGALGKLC [3G3 Ala scan 3: …]
Pick one: A or B . Which one has the lower reported IC50? Lab note: record the label of whichever item you select.
A
(A: 170 µg/mL, B: 260 µg/mL)

Measured values drawn from patent US6410775 for this set.
